Each entry below lists one item and its recorded pIC50 value.
# TGT: VEGFR2 (KDR) (Homo sapiens (Human), UniProt P35968)
# Sequence (P35968 20-1356): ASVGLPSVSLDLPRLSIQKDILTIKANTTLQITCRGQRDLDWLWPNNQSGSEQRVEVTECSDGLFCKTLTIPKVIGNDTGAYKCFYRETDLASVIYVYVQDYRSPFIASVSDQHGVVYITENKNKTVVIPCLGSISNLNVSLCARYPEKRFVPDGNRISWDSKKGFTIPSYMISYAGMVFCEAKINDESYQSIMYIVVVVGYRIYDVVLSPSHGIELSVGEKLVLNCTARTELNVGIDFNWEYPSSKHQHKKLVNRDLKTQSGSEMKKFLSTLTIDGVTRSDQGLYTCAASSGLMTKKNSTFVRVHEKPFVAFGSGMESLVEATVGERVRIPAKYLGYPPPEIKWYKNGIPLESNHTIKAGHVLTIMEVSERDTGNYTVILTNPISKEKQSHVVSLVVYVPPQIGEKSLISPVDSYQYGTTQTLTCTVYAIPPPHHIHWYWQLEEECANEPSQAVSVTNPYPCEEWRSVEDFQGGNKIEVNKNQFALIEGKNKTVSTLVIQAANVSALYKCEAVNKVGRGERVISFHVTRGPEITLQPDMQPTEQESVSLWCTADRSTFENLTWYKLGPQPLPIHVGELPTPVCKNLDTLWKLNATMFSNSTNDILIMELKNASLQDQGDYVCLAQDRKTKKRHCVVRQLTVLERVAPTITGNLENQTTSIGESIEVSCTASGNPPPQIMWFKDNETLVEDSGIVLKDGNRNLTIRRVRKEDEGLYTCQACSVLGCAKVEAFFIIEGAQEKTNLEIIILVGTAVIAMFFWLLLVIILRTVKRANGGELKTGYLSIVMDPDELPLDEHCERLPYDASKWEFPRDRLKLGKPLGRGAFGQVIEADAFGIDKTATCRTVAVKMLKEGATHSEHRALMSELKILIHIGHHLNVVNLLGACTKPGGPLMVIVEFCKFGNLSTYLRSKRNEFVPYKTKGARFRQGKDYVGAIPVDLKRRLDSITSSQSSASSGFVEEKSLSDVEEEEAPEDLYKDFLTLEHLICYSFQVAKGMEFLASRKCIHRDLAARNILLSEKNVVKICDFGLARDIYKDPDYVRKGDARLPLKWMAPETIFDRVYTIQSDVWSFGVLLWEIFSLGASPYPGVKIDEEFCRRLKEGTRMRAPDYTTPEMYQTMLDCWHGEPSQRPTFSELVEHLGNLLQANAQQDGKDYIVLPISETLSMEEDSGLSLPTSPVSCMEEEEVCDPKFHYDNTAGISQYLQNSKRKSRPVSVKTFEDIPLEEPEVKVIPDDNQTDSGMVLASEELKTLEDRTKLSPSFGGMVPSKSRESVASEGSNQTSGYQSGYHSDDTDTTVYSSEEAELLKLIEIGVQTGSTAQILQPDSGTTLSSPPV
Notebook: values listed as pIC50 are -log10 of the concentration (mol/L).

A selection of reference data follows.
In [3]: df
Out[3]:
                                   compound                                       tgt  meas_value
0  C=CC(=O)Nc1cc2c(Nc3ccc(Br)cc3F)ncnc2cc1OCCNC(=O)C(F)(F)F [Example 28]  VEGFR2 (KDR) (Homo sapiens (Human), UniProt P35968)        6.30
1  C=CC(=O)Nc1cc2c(Nc3ccc(Br)c(Cl)c3F)ncnc2cc1OCCNC(=O)CN(C)C [Example 143]  VEGFR2 (KDR) (Homo sapiens (Human), UniProt P35968)        7.06
2  C=CC(=O)Nc1cc2c(Nc3ccc(Br)cc3F)ncnc2cc1OCCN(C)C [Example 19]  VEGFR2 (KDR) (Homo sapiens (Human), UniProt P35968)        6.35
3  C=CC(=O)Nc1cc2c(Nc3ccc(Cl)cc3F)ncnc2cc1OCCNC(C)=O [Example 112]  VEGFR2 (KDR) (Homo sapiens (Human), UniProt P35968)        6.94

Answer with pIC50 of C=CC(=O)Nc1cc2c(Nc3ccc(Br)cc3F)ncnc2cc1OCC(C)NC(C)=O (stereo not shown) [Example 81] measured for VEGFR2 (KDR) (Homo sapiens (Human), UniProt P35968).
7.39

Answer with pIC50 of C=CC(=O)Nc1cc2c(Nc3ccc(Br)cc3F)ncnc2cc1OCCCNC(=O)C(F)(F)F [Example 14] measured for VEGFR2 (KDR) (Homo sapiens (Human), UniProt P35968).
6.23

Answer with pIC50 of C=CC(=O)Nc1cc2c(Nc3ccc(Br)cc3F)ncnc2cc1OCC1CCN(C(=O)NCCC)CC1 [Example 9] measured for VEGFR2 (KDR) (Homo sapiens (Human), UniProt P35968).
7.35

Answer with pIC50 of C=CC(=O)Nc1cc2c(Nc3ccc(Br)c(Cl)c3F)ncnc2cc1OCC(C)NC(=O)CN(C)C (stereo not shown) [Example 157] measured for VEGFR2 (KDR) (Homo sapiens (Human), UniProt P35968).
6.16

Answer with pIC50 of C=CC(=O)Nc1cc2c(Nc3ccc(Br)cc3F)ncnc2cc1OCCCCNC(C)=O [Example 20] measured for VEGFR2 (KDR) (Homo sapiens (Human), UniProt P35968).
6.26

Answer with pIC50 of C=CC(=O)Nc1cc2c(Nc3ccc(Br)cc3F)ncnc2cc1OCCNC(=O)CN1CCN(C)CC1 [Example 102] measured for VEGFR2 (KDR) (Homo sapiens (Human), UniProt P35968).
6.18
